Data origin: patent US20210395718A1

Below, each entry is listed with its recorded Residual activity (%).
# protocolDescription: Thermal stability: residual activity after incubation at 60° C. for one hour
# Format: biochemical
# testParameters: crude recombinant enzyme; after incubation at 60° C. for 1 hour
# Description: Thermal stability of the enzyme was investigated by measuring the activity of the enzyme after incubation at 60° C. for one hour and finding its relative activity supposing that the activity at 60° C. under the reaction conditions (10 minutes) used for determining the optimum temperature in the above 2 shown in Table 2 was 100. […] The residual enzyme activity was then measured by the conventional method. […]
quantityMeasured: Residual activity (%)

molecule="Ketose 3-epimerase mutant 17: amino acid-substituted mutant of SEQ ID NO: 1 (protein, Arthrobacter histidinolovorans) MKIGCHGLVWTGRFDAEGIRYSVQKTKEAGFDLIEFPLMDPFSFDVATAKSALAEHGLTASASLGLSEATDVSSEDPAIVKAGEELLNRALDVLAELGATEFCGVIYSAMKKYMEPATEQGLSNSKAAVGRVVDRAAGLGINVSLEVVNRYETNVLNTGRQALSYLSDVKRPNLGVHLDTYHMNIEESDMFSPVLDTAEVLKYVHIGESHRGYLGTGSVDFDNFFKALGRIGYDGPVVFESFSSAVVAPDLSRMLGIWRNLWADNEELGAHANAFIRDKLTAIKTIELH" observed=62.3%
molecule="Ketose 3-epimerase mutant 24: amino acid-substituted mutant of SEQ ID NO: 1 (protein, Arthrobacter histidinolovorans) MKIGCHGLVWTGRFDAEGIRYSVQKTKEAGFDLIEFPLMDPFSFDVATAKSALAEHGLTASASLGLSEATDVSSEDPAIVKAGEELLNRALDVLAELGATDFCGVIYSAMKKYMEPATEQGLSNSKAAVGRVVDRAAGLGINVSLEVVNRYETNVLNTGRQALSYLQDVKRPNLGVHLDTYHMNIEESDMFSPVLDTAEALKYVHIGESHRGYLGTGSVDFDNFFKALGRIGYDGPVVFESFSSAVVAPDLSRMLGIWRNLWADNEELGAHANAFIRDKLTAIKTIELH" observed=55.4%
